meta.source: paper PMC3791872

Target: Mcm2-7
Construct: made in house; host or cells: baculovirus-infected insect cells
Experiment: Mcm2-7 helicase (DNA unwinding) assay
Type: biochemical, Saccharomyces cerevisiae
Conditions: read-out: IC50 Mcm2-7; DNA unwinding, 100 nM hexamer, inhibitor preincubation; value (95% CI)
pIC50: −log10 of the molar value.

{"compound": "Cc1c(F)c(N2CCC(N)C2)nc2c1c(=O)c(C(=O)O)cn2C1CC1 (stereo not shown) [compound 125248]", "pIC50": 4.14}

---

Target: Mcm467 (Saccharomyces cerevisiae, UniProt P30665+P38132+P53091)
Construct: made in house; host or cells: baculovirus-infected insect cells
Sequence (P30665 whole entry): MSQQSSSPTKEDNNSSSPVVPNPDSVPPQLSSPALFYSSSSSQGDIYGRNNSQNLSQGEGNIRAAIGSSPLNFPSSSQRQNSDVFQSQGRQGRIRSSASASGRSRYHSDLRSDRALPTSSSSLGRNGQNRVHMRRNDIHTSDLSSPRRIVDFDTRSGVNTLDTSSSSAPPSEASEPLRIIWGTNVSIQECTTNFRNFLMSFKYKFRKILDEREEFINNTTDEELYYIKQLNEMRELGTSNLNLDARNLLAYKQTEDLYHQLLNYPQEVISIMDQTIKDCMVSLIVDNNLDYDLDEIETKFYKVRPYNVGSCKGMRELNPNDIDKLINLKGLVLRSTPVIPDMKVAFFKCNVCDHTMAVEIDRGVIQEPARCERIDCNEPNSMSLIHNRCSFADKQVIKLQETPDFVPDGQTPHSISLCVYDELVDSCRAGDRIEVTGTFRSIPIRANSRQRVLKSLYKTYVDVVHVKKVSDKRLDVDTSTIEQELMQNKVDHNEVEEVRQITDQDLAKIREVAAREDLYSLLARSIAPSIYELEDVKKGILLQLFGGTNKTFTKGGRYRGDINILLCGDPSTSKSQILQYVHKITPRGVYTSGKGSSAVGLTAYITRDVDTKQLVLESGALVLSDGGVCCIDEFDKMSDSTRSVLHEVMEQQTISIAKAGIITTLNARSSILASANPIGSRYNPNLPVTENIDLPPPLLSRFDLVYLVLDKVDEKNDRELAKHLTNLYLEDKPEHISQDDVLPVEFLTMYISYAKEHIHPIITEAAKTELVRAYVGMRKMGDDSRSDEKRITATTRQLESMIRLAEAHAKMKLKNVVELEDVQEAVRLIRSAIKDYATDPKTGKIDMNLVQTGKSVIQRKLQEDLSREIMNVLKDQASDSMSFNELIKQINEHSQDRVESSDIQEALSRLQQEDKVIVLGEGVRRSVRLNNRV
Sequence (P53091 whole entry): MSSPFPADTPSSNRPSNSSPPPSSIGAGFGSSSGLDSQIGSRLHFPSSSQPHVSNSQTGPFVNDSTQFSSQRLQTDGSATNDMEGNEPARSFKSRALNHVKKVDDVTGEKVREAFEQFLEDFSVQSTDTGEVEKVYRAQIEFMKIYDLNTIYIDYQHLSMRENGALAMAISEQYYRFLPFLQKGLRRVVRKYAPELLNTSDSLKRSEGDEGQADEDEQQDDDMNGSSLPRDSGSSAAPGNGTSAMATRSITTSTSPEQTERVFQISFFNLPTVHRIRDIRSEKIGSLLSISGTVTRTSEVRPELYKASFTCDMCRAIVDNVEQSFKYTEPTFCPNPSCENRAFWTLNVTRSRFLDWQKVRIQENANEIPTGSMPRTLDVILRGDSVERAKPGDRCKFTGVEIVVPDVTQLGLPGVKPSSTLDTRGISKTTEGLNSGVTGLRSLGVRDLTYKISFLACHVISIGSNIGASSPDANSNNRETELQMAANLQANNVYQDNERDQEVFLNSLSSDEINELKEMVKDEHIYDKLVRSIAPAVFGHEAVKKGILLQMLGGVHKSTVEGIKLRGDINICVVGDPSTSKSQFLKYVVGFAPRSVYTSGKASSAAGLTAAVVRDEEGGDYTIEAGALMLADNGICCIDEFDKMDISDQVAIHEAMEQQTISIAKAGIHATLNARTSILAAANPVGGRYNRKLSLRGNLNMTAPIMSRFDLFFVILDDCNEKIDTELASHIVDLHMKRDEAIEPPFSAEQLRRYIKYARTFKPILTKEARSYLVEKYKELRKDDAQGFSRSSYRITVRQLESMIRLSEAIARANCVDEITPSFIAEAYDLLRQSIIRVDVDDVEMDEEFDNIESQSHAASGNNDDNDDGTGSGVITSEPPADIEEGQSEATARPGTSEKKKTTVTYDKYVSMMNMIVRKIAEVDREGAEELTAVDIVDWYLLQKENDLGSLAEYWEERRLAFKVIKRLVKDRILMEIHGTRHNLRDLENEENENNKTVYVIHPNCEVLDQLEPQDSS
Sequence (P38132 whole entry): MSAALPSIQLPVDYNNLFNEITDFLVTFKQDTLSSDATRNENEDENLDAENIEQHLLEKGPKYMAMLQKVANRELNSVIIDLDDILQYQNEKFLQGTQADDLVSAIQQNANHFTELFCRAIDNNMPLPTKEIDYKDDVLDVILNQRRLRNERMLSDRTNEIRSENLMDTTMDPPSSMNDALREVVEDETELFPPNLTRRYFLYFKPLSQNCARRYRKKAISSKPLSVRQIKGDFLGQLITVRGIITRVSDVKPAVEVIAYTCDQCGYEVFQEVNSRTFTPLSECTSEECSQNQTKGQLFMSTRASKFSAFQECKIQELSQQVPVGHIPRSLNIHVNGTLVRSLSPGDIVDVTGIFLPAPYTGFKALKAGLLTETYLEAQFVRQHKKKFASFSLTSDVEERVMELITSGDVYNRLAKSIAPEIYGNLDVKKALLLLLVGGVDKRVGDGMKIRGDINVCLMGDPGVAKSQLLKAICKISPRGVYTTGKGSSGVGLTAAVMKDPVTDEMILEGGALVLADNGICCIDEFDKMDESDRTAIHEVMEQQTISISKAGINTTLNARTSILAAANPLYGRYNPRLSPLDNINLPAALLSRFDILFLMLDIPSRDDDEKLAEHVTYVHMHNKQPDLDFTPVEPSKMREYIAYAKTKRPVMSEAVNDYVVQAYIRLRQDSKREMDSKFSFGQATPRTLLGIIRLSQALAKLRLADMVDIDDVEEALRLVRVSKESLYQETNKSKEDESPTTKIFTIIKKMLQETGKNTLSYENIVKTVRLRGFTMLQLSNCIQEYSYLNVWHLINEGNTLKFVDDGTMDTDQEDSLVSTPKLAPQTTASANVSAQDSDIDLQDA
Assay: Mcm467 helicase (DNA unwinding) assay
Format: biochemical
Conditions: DNA unwinding, 100 nM hexamer, inhibitor preincubation; value (95% CI); read-out: IC50 Mcm467

{"molecule": "CCn1cc(C(=O)O)c(=O)c2c(N)c(F)c(N3CCNCC3)c(F)c21 [compound 271327]", "IC50 [µM]": 460}
{"molecule": "CSc1c(N2CCC(C(C)N)C2)ccc2c(=O)c(C(=O)O)cn(C3CC3)c12 (stereo not drawn) [compound 314850]", "IC50 [µM]": 707}
{"molecule": "NC1CCN(c2ccc3c(=O)c(C(=O)O)cn(-c4ccc(O)cc4)c3c2Cl)C1 (stereo not drawn) [compound 268973]", "IC50 [µM]": 272}
{"molecule": "CC1=C(C(=O)OCc2ccccc2)C(c2ccc(-c3ccccc3)cc2)NC(=O)N1CCCCCC(=O)O (stereo not drawn) [MAL2-11b, reference compound]", "IC50 [µM]": 112}
{"molecule": "Cc1ccc(-c2cc(-c3ccccc3)nc(N3CCNCC3)n2)cc1 [compound 388612]", "IC50 [µM]": 345}
{"molecule": "c1ccc(Nc2nc(Nc3ccccc3)nc(N3CCNCC3)n2)cc1 [compound 924384]", "IC50 [µM]": 246}

---

Target: Mcm467 (Saccharomyces cerevisiae, UniProt P30665+P38132+P53091)
Construct: made in house; host or cells: baculovirus-infected insect cells
Assay: Mcm467 helicase (DNA unwinding) assay
Type: biochemical
Conditions: DNA unwinding, 100 nM hexamer, inhibitor preincubation; […]; read-out: IC50 Mcm467

{"compound": "O=C(O)c1cn(C2CC2)c2cc(N3CCNCC3)c(F)cc2c1=O [Ciprofloxacin, ciprofloxacin, reference compound]", "value_units": "µM", "IC50": 1890}

---

System: S. cerevisiae ∆erg6 (UPY675)
Assay: Yeast growth inhibition, 96-well assay, ∆erg6 strain
Assay type: cell-based, Saccharomyces cerevisiae
Conditions: Saccharomyces cerevisiae; ∆erg6 strain, growth over 24 h; value (95% CI); read-out: IC50 Yeast
pIC50: −log10 of the molar value.
Recorded measurements of pIC50, one per entry

{"compound": "O=C(O)c1cn(C2CC2)c2cc(N3CCNCC3)c(F)cc2c1=O [Ciprofloxacin, ciprofloxacin, reference compound]", "system_tested": "S. cerevisiae ∆erg6 (UPY675)", "pIC50": 3.23}
{"compound": "NC1CCN(c2ccc3c(=O)c(C(=O)O)cn(-c4ccc(O)cc4)c3c2Cl)C1 (centres unmarked) [compound 268973]", "system_tested": "S. cerevisiae ∆erg6 (UPY675)", "pIC50": 3.80}
{"compound": "Cc1c(F)c(N2CCC(N)C2)nc2c1c(=O)c(C(=O)O)cn2C1CC1 (centres unmarked) [compound 125248]", "system_tested": "S. cerevisiae ∆erg6 (UPY675)", "pIC50": 3.34}
{"compound": "c1ccc(Nc2nc(Nc3ccccc3)nc(N3CCNCC3)n2)cc1 [compound 924384]", "system_tested": "S. cerevisiae ∆erg6 (UPY675)", "pIC50": 4.03}
{"compound": "CSc1c(N2CCC(C(C)N)C2)ccc2c(=O)c(C(=O)O)cn(C3CC3)c12 (centres unmarked) [compound 314850]", "system_tested": "S. cerevisiae ∆erg6 (UPY675)", "pIC50": 3.28}

---

Target: SV40 large TAg (T-antigen) (Simian virus 40)
Assay: biochemical
Parameters: species or system SV40 (simian virus 40)
Conditions: DNA unwinding, 100 nM complex; read-out: IC50 TAg helicase activity
observation_type: IC50 (mM)

{"compound": "CC1COc2c(N3CCN(C)CC3)c(F)cc3c(=O)c(C(=O)O)cn1c23 (centres unmarked) [ofloxacin, reference compound]", "observation_type": "IC50", "value_units": "mM", "comparison_sign": ">", "val": 20}
{"compound": "O=C(O)c1cn(C2CC2)c2cc(N3CCNCC3)c(F)cc2c1=O [Ciprofloxacin, ciprofloxacin, reference compound]", "observation_type": "IC50", "value_units": "mM", "comparison_sign": "=", "val": 4}

---

Molecular target: Mcm2-7
Construct: made in house; host or cells: baculovirus-infected insect cells
Experiment: Mcm2-7 helicase (DNA unwinding) assay
Format: biochemical, Saccharomyces cerevisiae
Details: DNA unwinding, 100 nM complex; read-out: IC50 Mcm2-7 helicase activity
pIC50: −log10 of the molar value.

{"compound": "CC1COc2c(N3CCN(C)CC3)c(F)cc3c(=O)c(C(=O)O)cn1c23 (stereo not shown) [ofloxacin, reference compound]", "system_tested": "Mcm2-7", "pIC50": 2.38}

---

Biological target: SV40 large TAg (T-antigen) (Simian virus 40, UniProt P03070)
Sequence (P03070 whole entry, looked up): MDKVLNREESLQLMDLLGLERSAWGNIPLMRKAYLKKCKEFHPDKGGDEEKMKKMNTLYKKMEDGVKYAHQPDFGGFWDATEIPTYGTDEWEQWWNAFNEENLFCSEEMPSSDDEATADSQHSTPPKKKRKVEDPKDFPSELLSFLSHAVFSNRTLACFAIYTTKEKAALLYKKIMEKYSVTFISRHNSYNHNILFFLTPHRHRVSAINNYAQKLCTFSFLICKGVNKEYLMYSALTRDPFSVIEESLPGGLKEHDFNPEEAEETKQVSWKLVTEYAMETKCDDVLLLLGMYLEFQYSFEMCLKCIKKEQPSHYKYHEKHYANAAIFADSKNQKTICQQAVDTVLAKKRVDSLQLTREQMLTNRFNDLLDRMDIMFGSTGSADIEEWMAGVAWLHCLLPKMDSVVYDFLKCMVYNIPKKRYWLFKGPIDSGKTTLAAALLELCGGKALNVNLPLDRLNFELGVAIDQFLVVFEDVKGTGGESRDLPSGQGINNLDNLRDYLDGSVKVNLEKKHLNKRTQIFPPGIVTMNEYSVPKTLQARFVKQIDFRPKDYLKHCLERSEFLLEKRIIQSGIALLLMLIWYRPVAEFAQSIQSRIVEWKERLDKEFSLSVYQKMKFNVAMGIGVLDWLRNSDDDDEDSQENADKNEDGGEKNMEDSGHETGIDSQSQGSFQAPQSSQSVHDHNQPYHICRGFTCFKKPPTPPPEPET
Assay: biochemical
Parameters: species or system SV40 (simian virus 40)
Details: DNA unwinding, 100 nM hexamer, inhibitor preincubation; […]; read-out: IC50 T-antigen
pIC50: −log10 of the molar value.
Recorded measurements of pIC50, one per entry

{"molecule": "CC1=C(C(=O)OCc2ccccc2)C(c2ccc(-c3ccccc3)cc2)NC(=O)N1CCCCCC(=O)O (centres unmarked) [MAL2-11b, reference compound]", "comparison_sign": "=", "pIC50": 3.72}
{"molecule": "Cc1ccc(-c2cc(-c3ccccc3)nc(N3CCNCC3)n2)cc1", "comparison_sign": "=", "pIC50": 3.90}
{"molecule": "CCn1cc(C(=O)O)c(=O)c2c(N)c(F)c(N3CCNCC3)c(F)c21", "comparison_sign": "<", "pIC50": 3.00}
{"molecule": "O=C(O)c1cn(C2CC2)c2cc(N3CCNCC3)c(F)cc2c1=O [Ciprofloxacin, ciprofloxacin, reference compound]", "comparison_sign": "=", "pIC50": 2.40}
{"molecule": "NC1CCN(c2ccc3c(=O)c(C(=O)O)cn(-c4ccc(O)cc4)c3c2Cl)C1 (centres unmarked)", "comparison_sign": "=", "pIC50": 3.32}
{"molecule": "Cc1c(F)c(N2CCC(N)C2)nc2c1c(=O)c(C(=O)O)cn2C1CC1 (centres unmarked)", "comparison_sign": "=", "pIC50": 3.72}
{"molecule": "CSc1c(N2CCC(C(C)N)C2)ccc2c(=O)c(C(=O)O)cn(C3CC3)c12 (centres unmarked)", "comparison_sign": "<", "pIC50": 3.00}
{"molecule": "c1ccc(Nc2nc(Nc3ccccc3)nc(N3CCNCC3)n2)cc1", "comparison_sign": "=", "pIC50": 4.15}

---

Molecular target: Mcm2-7
Construct: made in house; host or cells: baculovirus-infected insect cells
Assay: Mcm2-7 helicase (DNA unwinding) assay
Type: biochemical, Saccharomyces cerevisiae
Details: DNA unwinding, 100 nM hexamer, inhibitor preincubation; value (95% CI); read-out: IC50 Mcm2-7
pIC50: −log10 of the molar value.
observation_type: pIC50

{"compound": "c1ccc(Nc2nc(Nc3ccccc3)nc(N3CCNCC3)n2)cc1", "val": 3.94}
{"compound": "CCn1cc(C(=O)O)c(=O)c2c(N)c(F)c(N3CCNCC3)c(F)c21", "val": 3.44}
{"compound": "Cc1ccc(-c2cc(-c3ccccc3)nc(N3CCNCC3)n2)cc1", "val": 3.40}
{"compound": "NC1CCN(c2ccc3c(=O)c(C(=O)O)cn(-c4ccc(O)cc4)c3c2Cl)C1 (stereo not drawn)", "val": 3.73}
{"compound": "CC1=C(C(=O)OCc2ccccc2)C(c2ccc(-c3ccccc3)cc2)NC(=O)N1CCCCCC(=O)O (stereo not drawn) [MAL2-11b, reference compound]", "val": 4.02}
{"compound": "CSc1c(N2CCC(C(C)N)C2)ccc2c(=O)c(C(=O)O)cn(C3CC3)c12 (stereo not drawn)", "val": 3.58}

---

Target: Mcm467 (Saccharomyces cerevisiae, UniProt P30665+P38132+P53091)
Construct: made in house; host or cells: baculovirus-infected insect cells
Assay: Mcm467 helicase (DNA unwinding) assay
Assay type: biochemical
Conditions: IC50 Mcm467, DNA unwinding, 100 nM hexamer, inhibitor preincubation; value (95% CI)

{"compound": "Cc1c(F)c(N2CCC(N)C2)nc2c1c(=O)c(C(=O)O)cn2C1CC1 (stereo not shown)", "value_units": "µM", "IC50": 130}
